Tested on: NCI-H522
Test Name: NCI tumour cell line growth inhibition, 48 h
Activity calls are given as the source filed them. Cut-off read from the data, not from the text of the source: active = GI50 up to about 1.1 µM and inactive = higher.
Possible outcomes: true (active), false (inactive)

# Compound, System, Assigned Category
rows = [
    ("NC1=NS(=O)(=O)Nc2nc(-c3ccc([N+](=O)[O-])o3)[nH]c21", "NCI-H522", "false"),
    ("Cc1cccc(/N=N/c2ccc(O)c(CN(C)C)c2)c1", "NCI-H522", "false"),
    ("Cc1cc(=O)oc2c(CNC(C)C(=O)O)c(O)ccc12 (stereo unspecified)", "NCI-H522", "false"),
    ("CNC1=Nc2ccc(Cl)cc2C(c2ccccc2)=NN1C", "NCI-H522", "false"),
    ("O=C1c2c(O)cccc2C(C(=O)CCCCC(=O)C2c3cccc(O)c3C(=O)c3c(O)cccc32)c2cccc(O)c21", "NCI-H522", "true"),
    ("CN(C)CCCN1c2ccccc2CCc2ccc([N+](=O)[O-])cc21", "NCI-H522", "false"),
    ("COc1ccc2nc(/C(N)=C\\C#N)ccc2c1", "NCI-H522", "false"),
    ("Cc1nccn1S(=O)(=O)c1ccc(Cl)cc1", "NCI-H522", "false"),
    ("O=C(/C=C/NC(=O)OCc1ccccc1)OCc1ccccc1", "NCI-H522", "false"),
    ("Cc1ccc(N(Cc2ccccc2)Cc2ccccc2)cc1", "NCI-H522", "false"),
    ("COc1ccc2nc3cc(Cl)ccc3c(SCC(=O)Nc3ccccc3-c3ccccc3NC(=O)CSc3c4ccc(Cl)cc4nc4ccc(OC)cc34)c2c1", "NCI-H522", "false"),
    ("Cc1c(-c2cnccn2)ssc1=S", "NCI-H522", "false"),
    ("Cn1cc(C(=O)C[n+]2ccccc2)c2ccccc21", "NCI-H522", "false"),
    ("O=C(Cc1ccc(O)c(O)c1)NCc1c[nH]c2ccccc12", "NCI-H522", "false"),
    ("c1ccc(-c2ccc(/N=N/N3CCCC3)cc2)cc1", "NCI-H522", "false"),
    ("COc1ccc(Cc2ccc3nc(O)cc(C)c3c2)cc1S(=O)(=O)O", "NCI-H522", "false"),
    ("C=C1C(OC)=C(OC)C(=O)c2[nH]c3c(OC)cc([N+](=O)[O-])cc3c21", "NCI-H522", "false"),
    ("CCOC(=O)Cn1c(=O)[nH]c(=O)c2c1ncn2Cc1ccccc1", "NCI-H522", "false"),
    ("C=C1C(=O)OC2/C=C(\\C)CC(O)/C=C(/CO)CC(OC(=O)/C(C)=C/C)C12 (stereo unspecified)", "NCI-H522", "false"),
    ("CC[C@@]1(O)C(=O)OCc2c1cc1n(c2=O)Cc2c-1nc1ccccc1c2Cl", "NCI-H522", "true"),
    ("C=C1C(=O)O[C@H]2C1[C@H](OC(=O)/C(C)=C\\COC(C)=O)C[C@]1(CO1)[C@@H]1[C@H](O)[C@H]3O[C@@]3(C)[C@@H]12 (stereo partly specified)", "NCI-H522", "false"),
]

###

Recorded GI50 values for a group of molecules are listed next.
Tested on: SF-539
Test Name: NCI tumour cell line growth inhibition, 48 h
Activity calls are given as the source filed them. Cut-off read from the data, not from the text of the source: active = GI50 up to about 1.1 µM and inactive = higher.
Measured Quantity: GI50

# Molecule, Data Value
rows = [
    ("O=S1(=O)c2ccccc2N2C(c3ccccc3)=NOC2(c2ccccc2)CC1c1ccc(Br)cc1 (stereo unspecified)", "> 100 µM (inactive)"),
    ("O=C1c2ccccc2-c2ccc(O)cc21", "22.9 µM (inactive)"),
    ("COc1cc(OC)c([C@@H]2OC(=O)C3C2C(=O)O[C@H]3c2cc(OC)c(OC)cc2OC)cc1OC (stereo partly specified)", "> 100 µM (inactive)"),
    ("NC1N=C(c2ccc(Cl)cc2)C2=C(N1)c1ccccc1CC2 (stereo unspecified)", "14.6 µM (inactive)"),
    ("C1CCC(CC2CCC(NC3=NCCO3)CC2)CC1 (stereo unspecified)", "16.8 µM (inactive)"),
    ("COC(=O)/C=C/c1cnc2c(c1)oc(=O)n2C", "> 100 µM (inactive)"),
]

###

Tested on: MDA-MB-231
Test Name: NCI tumour cell line growth inhibition, 48 h
Active and inactive are the calls of the source. Cut-off read from the data, not from the text of the source: active = GI50 up to about 1.1 µM and inactive = higher. Residues, ends and D or L forms follow the SMILES beside them. *: point of attachment. Boc = CC(C)(C)OC(=O)*
Measured Quantity: GI50

# Molecule, Data Value
measured = [
    ("COc1cc2cc(C(=O)N3CC(CCl)c4c3cc(NC(=O)OCc3ccc([N+](=O)[O-])cc3)c3ccccc43)[nH]c2c(OC)c1OC (stereo not given)", "44.9 µM (inactive)"),
    ("Cc1n[nH]c(=O)c2c3c([nH]c12)-c1ccccc1C3", "66.4 µM (inactive)"),
    ("Cc1nccn1S(=O)(=O)c1ccc(Cl)cc1", "31.9 µM (inactive)"),
    ("N=C(N)NS(=O)(=O)c1ccc(NC(=O)c2ccc3nc4ccccc4c(Nc4ccc(S(=O)(=O)N=C(N)N)cc4)c3c2)cc1", "> 100 µM (inactive)"),
    ("Cc1c(-c2cnccn2)ssc1=S", "63.2 µM (inactive)"),
    ("CNC(=O)OCc1cnc([N+](=O)[O-])n1C", "> 100 µM (inactive)"),
    ("O=C1Nc2cc(Cl)ccc2C(=O)N2CCC[C@@H]12", "> 100 µM (inactive)"),
    ("O=C(Nc1cc2c(=O)oc3ccccc3c2oc1=O)c1cccnc1", "> 100 µM (inactive)"),
    ("O=C1Nc2c(Cl)cccc2/C1=N/Nc1ccccc1[N+](=O)[O-]", "4.97 µM (inactive)"),
    ("O=C(O)CN1CCNCCN(CC(=O)O)CCN(CC(=O)O)CCNCC1", "> 100 µM (inactive)"),
    ("Nc1ccc(S(=O)(=O)Nc2nc3ccccc3nc2N2CCCCCC2)cc1", "26.9 µM (inactive)"),
    ("CCOC(=O)C1(Cc2ccc(C)cc2)Cc2ccc(C)cc2C1=O (stereo not given)", "16.5 µM (inactive)"),
    ("COc1cc(OC)nc(-n2c(N)c(C#N)c3ccc([N+](=O)[O-])cc3c2=O)n1", "> 100 µM (inactive)"),
    ("Cc1cn([C@H]2C[C@H](N=[N+]=[N-])[C@@H](CO)O2)c(=O)[nH]c1=O", "> 100 µM (inactive)"),
    ("O=C(CN1C(=O)c2ccccc2C1=O)OCC1CCCN2CCCCC12 (stereo not given)", "> 100 µM (inactive)"),
    ("COC(=O)C(Cc1c[nH]c2ccccc12)NC(=O)C(Cc1c[nH]c2ccccc12)NC(=O)C(Cc1c[nH]c2ccccc12)NC(=O)C(Cc1c[nH]c2ccccc12)NC(=O)OC(C)(C)C (stereo not given) (Boc-WWWW-OMe; configuration not given here)", "> 100 µM (inactive)"),
    ("CC(O)c1c2c(cc3c1CC1(C3)Cc3cc4c(c(C(C)O)c3C1)CCC4)CCC2 (stereo not given)", "16.8 µM (inactive)"),
    ("CN(C)CCNC(=O)Cn1ccc(=O)c2c([N+](=O)[O-])cccc21", "> 100 µM (inactive)"),
    ("C1=Cc2cccc3occ(c23)C=C1", "> 100 µM (inactive)"),
    ("O=c1cc(NCC2CCCCC2)[nH]c(=O)[nH]1", "> 100 µM (inactive)"),
    ("O=[N+]([O-])c1c(Br)cc(Br)c2c1Nc1c(ccc(Cl)c1Cl)S2", "13.2 µM (inactive)"),
    ("C1CCC(CC2CCC(NC3=NCCO3)CC2)CC1 (stereo not given)", "19.4 µM (inactive)"),
    ("CC[C@@]1(O)C(=O)OCc2c1cc1n(c2=O)Cc2c-1nc1ccccc1c2Cl", "8.32 µM (inactive)"),
    ("Cc1nc2c(=O)n(-c3ccccc3)c(=O)n(-c3ccccc3)c2o1", "> 100 µM (inactive)"),
    ("COc1cc(C=O)ccc1Oc1nnnn1-c1ccccc1", "> 100 µM (inactive)"),
    ("COC(=O)[C@@H]1C[C@]2(CC=C(C)C)c3ccccc3N(S(=O)(=O)c3ccccc3)[C@@H]2N1C(=O)OC", "20.4 µM (inactive)"),
    ("COc1ccc2nc(/C(N)=C\\C#N)ccc2c1", "> 100 µM (inactive)"),
    ("Cc1cn(C2CC(Br)C(COC(c3ccccc3)(c3ccccc3)c3ccccc3)O2)c(=O)[nH]c1=O (stereo not given)", "17.7 µM (inactive)"),
    ("COC(=O)c1c(O)ccc2c1c1c(n2CCc2ccccc2)C(=O)c2ccccc2C1", "19.5 µM (inactive)"),
    ("N#Cc1cnn2ccn(C3OC(COC(=O)c4ccccc4)C(OC(=O)c4ccccc4)C3OC(=O)c3ccccc3)c12 (stereo not given)", "> 21.5 µM (inactive)"),
    ("CCCCCCCCCC(=O)OCC1(CO)C/C(=C/CC(C(C)C)C(C)C)C(=O)O1 (stereo not given)", "51.3 µM (inactive)"),
    ("COc1cc(C2c3cc4c(cc3OC(NCc3ccccc3)C2C)OCO4)cc(OC)c1OC (stereo not given)", "0.303 µM (active)"),
    ("Cc1cc(O)c(C(O)c2ccccn2)cc1O (stereo not given)", "17.5 µM (inactive)"),
    ("C=C1[C@@H](C)[C@H]2[C@H](Cc3ccccc3)NC(=O)[C@]23OC(=O)/C=C/[C@H](O)CCC[C@@H](C)C/C=C/[C@H]3[C@@H]1O", "5.31 µM (inactive)"),
    ("Cc1cccc(CC(Cc2c(C)cccc2C(=O)O)C(=O)O)c1 (stereo not given)", "> 100 µM (inactive)"),
    ("O=C(CC(=O)Nc1ccccc1Cl)NNC(Sc1ccccc1)c1cc(/N=N/c2ccc(Br)cc2)ccc1O (stereo not given)", "2.22 µM (inactive)"),
    ("NCCCn1c2ccccc2c2c3c(c4c(c21)CCC(O)CC4)C(=O)NC3=O (stereo not given)", "1.85 µM (inactive)"),
    ("C=CCC(C)C12CCNC(Cc3ccc(O)cc31)C2C (stereo not given)", "> 100 µM (inactive)"),
    ("NC(=O)CC(N)C(=O)NC(Cc1ccccc1)C(=O)NC(Cc1ccccc1)NC(=O)C(Cc1c[nH]c2ccccc12)C(=O)O (stereo not given)", "> 100 µM (inactive)"),
    ("Nn1nnc2ccccc21", "> 100 µM (inactive)"),
]
